// data source = PubChem BioAssay (EPA / NIEHS)

Read-out: Pselectin, SELP (gene 6403)
runDescription: BSK_4H_Pselectin: BioMAP Diversity Plus: 4H Assay for Pselectin Biomarker Activity (AID 2283026)
testConditions: primary human endothelial cells (HUVEC); actives raise or lower the signal
Active and inactive are the calls of the source. How the source made its calls: active means hit-call score of the fitted dose curve at least 0.9, where 1 is the maximum; inactive means score below 0.9.
Outcome codes: true (1) for active, false (0) for inactive

{"columns": ["molecule", "cat"],
 "data": [
  ["CC(C)(C)C(O)(CCc1ccc(Cl)cc1)Cn1cncn1 (stereo unspecified)", "false (0)"],
  ["CCC[CH2][Sn]([Cl])([CH2]CCC)[CH2]CCC", "true (1)"],
  ["Clc1ccc(Cl)c(Cl)c1", "false (0)"],
  ["O=C(O)C1C2CCC(O2)C1C(=O)O (stereo unspecified)", "true (1)"],
  ["O=[N+]([O-])C(Br)(CO)CO", "true (1)"],
  ["COP(=S)(OC)SCN1C(=O)c2ccccc2C1=O", "false (0)"],
  ["CCC(C)c1ccc(O)cc1 (stereo unspecified)", "false (0)"],
  ["c1ccc2c(c1)-c1cccc3cccc-2c13", "false (0)"],
  ["C=CCc1ccc2c(c1)OCO2", "false (0)"],
  ["CCOC(=O)[C@]1(c2ccccc2)Oc2ccccc2[C@@H]1N", "false (0)"],
  ["CC(O)CCO (stereo unspecified)", "false (0)"]
]}

* * *

Read-out: Interleukin 6 Receptor (IL6R), IL6R (gene 3570)
runDescription: LTEA_HepaRG_IL6R: Life Technologies and Expression Analysis (LTEA) Assay for Interleukin 6 Receptor (IL6R) using HepaRG (AID 2283510)
testConditions: mRNA level, 48 h; actives raise or lower the signal
Active and inactive are the calls of the source. Rule for the calls: active = hit-call score of the fitted dose curve at least 0.9, where 1 is the maximum; inactive = score below 0.9.
Outcome codes: active, inactive

{"columns": ["compound", "cat"],
 "data": [
  ["O=C1CCCO1", "inactive"],
  ["CCCCCOC(=O)c1ccccc1C(=O)OCCCCC", "inactive"],
  ["[As]#[In]", "inactive"],
  ["CCCCCCCCn1sccc1=O", "active"],
  ["CCOc1cccc(C2(N3CCN(c4ccccc4)CC3)CCC(C)CC2)c1 (configuration not stated)", "inactive"],
  ["OCCOCCO", "inactive"],
  ["c1ccc(NNc2ccccc2)cc1", "inactive"],
  ["Clc1ccc(C(c2ccc(Cl)cc2)C(Cl)(Cl)Cl)cc1", "inactive"],
  ["O=[N+]([O-])c1ccc(Oc2ccc(Cl)cc2Cl)cc1", "inactive"],
  ["CO[C@@H]1[C@H](OC(=O)NC(=O)CCl)CC[C@]2(CO2)[C@H]1[C@@]1(C)O[C@@H]1CC=C(C)C", "inactive"],
  ["CCCCC(CC)COC(=O)c1ccc(C(=O)OCC(CC)CCCC)c(C(=O)OCC(CC)CCCC)c1 (configuration not stated)", "inactive"],
  ["CCNS(=O)(=O)C(F)(F)C(F)(F)C(F)(F)C(F)(F)C(F)(F)C(F)(F)C(F)(F)C(F)(F)F", "inactive"]
]}

* * *

Read-out: Lipase C (LIPC), LIPC (gene 3990)
runDescription: LTEA_HepaRG_LIPC: Life Technologies and Expression Analysis (LTEA) Assay for Lipase C (LIPC) using HepaRG (AID 2283514)
testConditions: mRNA level, 48 h; actives raise or lower the signal
Active and inactive are the calls of the source. Rule for the calls: active = hit-call score of the fitted dose curve at least 0.9, where 1 is the maximum; inactive = score below 0.9.
Outcome codes: true (1) for active, false (0) for inactive

{"columns": ["compound", "cat"],
 "data": [
  ["Clc1ccc(C(c2ccc(Cl)cc2)C(Cl)Cl)cc1", "false (0)"],
  ["CC(C)(OOC(C)(C)c1ccccc1)c1ccccc1", "false (0)"],
  ["CN(C)c1ccccc1", "false (0)"],
  ["Nc1ccc([N+](=O)[O-])cc1", "false (0)"],
  ["Clc1ccccc1Cl", "false (0)"],
  ["O=C1CCCO1", "false (0)"],
  ["CN(C)C(=O)Nc1ccc(Cl)cc1", "false (0)"],
  ["Brc1ccc(Oc2ccccc2)cc1", "false (0)"],
  ["[As]#[In]", "false (0)"],
  ["Nc1ccc(Cl)cc1N", "true (1)"],
  ["O=[N+]([O-])C(Br)(CO)CO", "false (0)"],
  ["Clc1ccc(Cl)c(Cl)c1", "false (0)"],
  ["CCNS(=O)(=O)C(F)(F)C(F)(F)C(F)(F)C(F)(F)C(F)(F)C(F)(F)C(F)(F)C(F)(F)F", "false (0)"],
  ["c1ccc2c(c1)oc1ccccc12", "false (0)"],
  ["O=C(O)C1C2CCC(O2)C1C(=O)O (centres undefined)", "true (1)"],
  ["O=[N+]([O-])c1ccc(Oc2ccc(Cl)cc2Cl)cc1", "false (0)"],
  ["Nc1ccc(N=Nc2ccccc2)cc1", "true (1)"],
  ["O=C(Oc1ccc(Br)cc1)N1CCN2CCC1CC2", "false (0)"],
  ["CN(C)c1ccc(C(=O)c2ccc(N(C)C)cc2)cc1", "true (1)"],
  ["Cc1ccc(N=C=O)cc1N=C=O", "true (1)"],
  ["COC(=O)c1ccccc1N", "false (0)"],
  ["CCCCCCCCCCCCCN1CC(C)OC(C)C1 (centres undefined)", "false (0)"],
  ["CCCCOC(=O)c1ccccc1C(=O)OCc1ccccc1", "false (0)"],
  ["CCOC(=O)[C@]1(c2ccccc2)Oc2ccccc2[C@@H]1N", "true (1)"]
]}

* * *

Read-out: CD40, CD40 (gene 958)
runDescription: BSK_SAg_CD40: BioMAP Diversity Plus: SAg Assay for CD40 Biomarker Activity (AID 2283088)
testConditions: primary human HUVEC with PBMC; actives raise or lower the signal
Calls of active or inactive are those of the source. Rule for the calls: active = hit-call score of the fitted dose curve at least 0.9, where 1 is the maximum; inactive = score below 0.9.
Outcome codes: active, inactive

{"columns": ["compound", "cat"],
 "data": [
  ["Nc1ccc(Cc2ccc(N)cc2)cc1", "inactive"],
  ["CCCSC(=O)N(CCC)CCC", "inactive"],
  ["ClC1=C(Cl)[C@]2(Cl)[C@H]3[C@H]([C@@H]4C=C[C@H]3C4)[C@@]1(Cl)C2(Cl)Cl", "active"],
  ["CC(C)(C)C(O)(CCc1ccc(Cl)cc1)Cn1cncn1 (centres undefined)", "inactive"],
  ["O=C(Nc1ccccc1)c1ccccc1I", "inactive"],
  ["CC(C)(O)c1cnn2c(-c3ccc(F)c(-c4c(F)cccc4C#N)c3)cnc2n1", "active"],
  ["Nc1ccc([N+](=O)[O-])cc1", "inactive"],
  ["Clc1ccccc1Cl", "inactive"],
  ["N#CC(Br)Br", "inactive"],
  ["[As]#[In]", "inactive"],
  ["CC(C)N(Cc1ccccc1)C(=O)C(C)(C)C", "inactive"],
  ["ClC1=C(Cl)C2(Cl)C3C(Cl)C=CC3C1(Cl)C2(Cl)Cl (centres undefined)", "active"],
  ["Nc1ccc(Cl)cc1N", "inactive"],
  ["[O-][Cl+]O", "inactive"],
  ["O=[N+]([O-])C(Br)(CO)CO", "active"],
  ["Cn1cc(-c2ccccc2)c(=O)c(-c2cccc(C(F)(F)F)c2)c1", "inactive"],
  ["CO[C@@H]1[C@H](OC(=O)NC(=O)CCl)CC[C@]2(CO2)[C@H]1[C@@]1(C)O[C@@H]1CC=C(C)C", "active"],
  ["CCCCOC(=O)c1ccccc1C(=O)OCc1ccccc1", "inactive"],
  ["Oc1ccccc1Cl", "inactive"],
  ["CCCCC(CC)COC(=O)c1ccc(C(=O)OCC(CC)CCCC)c(C(=O)OCC(CC)CCCC)c1 (centres undefined)", "inactive"],
  ["O=C(Oc1ccc(Br)cc1)N1CCN2CCC1CC2", "inactive"],
  ["c1ccc(N=Nc2ccccc2)cc1", "inactive"],
  ["CCC12COCN1COC2", "inactive"],
  ["CCC(C)c1ccc(O)cc1 (centres undefined)", "inactive"]
]}

* * *

Read-out: Tumor necrosis factor (Homo sapiens)
runDescription: BSK_LPS_TNFa: BioMAP Diversity Plus: LPS Assay for Tumour Necrosis Factor alpha (TNFa) Biomarker Activity (AID 2283085)
testConditions: primary human HUVEC with PBMC; actives raise or lower the signal
Active and inactive are the calls of the source. Rule for the calls: active = hit-call score of the fitted dose curve at least 0.9, where 1 is the maximum; inactive = score below 0.9.
Outcome codes: yes (1) for active, no (0) for inactive

{"columns": ["molecule", "cat"],
 "data": [
  ["C[C@]12C=CC3=C4CCC(=O)C=C4CC[C@H]3[C@@H]1CC[C@@H]2O", "no (0)"],
  ["OCCCl", "no (0)"],
  ["c1ccc2c(c1)oc1ccccc12", "no (0)"],
  ["CC(C)(C)OOC(=O)c1ccccc1", "no (0)"],
  ["O=Cc1ccco1", "no (0)"],
  ["Nc1ccc(Oc2ccc(N)cc2)cc1", "no (0)"],
  ["c1ccc(C2CO2)cc1 (configuration not stated)", "no (0)"],
  ["CCCCCCCCn1sccc1=O", "yes (1)"],
  ["Nc1ccc([N+](=O)[O-])cc1", "no (0)"],
  ["c1ccc(N=Nc2ccccc2)cc1", "no (0)"],
  ["Brc1ccc(Oc2ccccc2)cc1", "no (0)"],
  ["Oc1ccc2ccc3cccc4ccc1c2c34", "yes (1)"],
  ["O=C(N[C@H](c1ccccc1)[C@@H]1CN2CCC1CC2)c1c(Cl)ccc(C(F)(F)F)c1Cl", "no (0)"],
  ["Nc1ccc(N=Nc2ccccc2)cc1", "yes (1)"],
  ["O=C(Nc1ccccc1)c1ccccc1I", "no (0)"],
  ["CC(C)(OOC(C)(C)c1ccccc1)c1ccccc1", "yes (1)"],
  ["COP(=S)(OC)SCN1C(=O)c2ccccc2C1=O", "no (0)"],
  ["Clc1ccc(Cl)c(Cl)c1", "no (0)"],
  ["CC(O)CCO (configuration not stated)", "no (0)"],
  ["CCCCCOC(=O)c1ccccc1C(=O)OCCCCC", "yes (1)"],
  ["Clc1ccc(C(c2ccc(Cl)cc2)C(Cl)Cl)cc1", "yes (1)"],
  ["Nc1cc(Cl)cc(C(=O)O)c1Cl", "no (0)"],
  ["CCOC(=O)[C@]1(c2ccccc2)Oc2ccccc2[C@@H]1N", "no (0)"],
  ["CCCSC(=O)N(CCC)CCC", "no (0)"],
  ["CN(C)c1ccccc1", "no (0)"],
  ["[As]#[In]", "no (0)"],
  ["CCC(C)c1ccc(O)cc1 (configuration not stated)", "no (0)"],
  ["CC(C)(C)C(O)(CCc1ccc(Cl)cc1)Cn1cncn1 (configuration not stated)", "no (0)"],
  ["CNC(=O)Oc1cccc2c1OC(C)(C)C2", "no (0)"],
  ["CCCCC(CC)COC(=O)c1ccc(C(=O)OCC(CC)CCCC)c(C(=O)OCC(CC)CCCC)c1 (configuration not stated)", "no (0)"],
  ["O=C(Oc1ccc(Br)cc1)N1CCN2CCC1CC2", "no (0)"],
  ["COc1cc(C=O)cc2c1[C@H](COC(N)=O)[C@]1(OC(C)=O)ON2C[C@H]2[C@@H]1N2C(C)=O", "no (0)"],
  ["Nc1ccc(Cc2ccc(N)cc2)cc1", "no (0)"],
  ["CO[C@@H]1[C@H](OC(=O)NC(=O)CCl)CC[C@]2(CO2)[C@H]1[C@@]1(C)O[C@@H]1CC=C(C)C", "yes (1)"],
  ["Nc1ccc(Cl)cc1N", "no (0)"],
  ["c1ccc(NNc2ccccc2)cc1", "no (0)"],
  ["O=[N+]([O-])C(Br)(CO)CO", "yes (1)"],
  ["C1=Cc2cccc3cccc1c23", "no (0)"],
  ["O=C1CCCO1", "no (0)"],
  ["CCN(CC)N=O", "no (0)"],
  ["CCOc1cccc(C2(N3CCN(c4ccccc4)CC3)CCC(C)CC2)c1 (configuration not stated)", "no (0)"],
  ["CCC12COCN1COC2", "no (0)"],
  ["Cc1cccc(N)c1N", "no (0)"],
  ["Oc1ccccc1Cl", "no (0)"],
  ["O=P(OCCCl)(OCCCl)OCCCl", "no (0)"],
  ["CC(C)(O)c1cnn2c(-c3ccc(F)c(-c4c(F)cccc4C#N)c3)cnc2n1", "yes (1)"],
  ["CN(C)C(=O)Nc1ccc(Cl)cc1", "no (0)"]
]}
